Task for the reader: assign each of the following compounds its reported MCHC.
Organism: Rattus norvegicus
Experiment: Open TG-GATES - Regimen: Daily Repeat
Assay type: toxicity, organism-based, Sprague-Dawley
Set-up: regimen Daily Repeat, gender Male, age 6 weeks
Settings: in vivo, po, 1000 mg/kg, […], tissue Blood, route gavage, dose level High, time 28 day
Returns: string containing the number followed by the unit.

q: Name the recorded MCHC of the item `COC(=O)C1=C(C)NC(C)=C(C(=O)OC)C1c1ccccc1[N+](=O)[O-]` in your answer.
a: 33.2%

q: Name the recorded MCHC of the item `CNC(=C[N+](=O)[O-])NCCSCc1ccc(CN(C)C)o1` in your answer.
a: 35.9%

q: Name the recorded MCHC of the item `Cc1nnc2n1-c1ccc(Cl)cc1C(c1ccccc1Cl)=NC2` in your answer.
a: 33.9%

q: Name the recorded MCHC of the item `CCOc1ccc(NC(C)=O)cc1` in your answer.
a: 33.3%

---

Organism: Rattus norvegicus
Assay: Open TG-GATES - Regimen: Single
Type: toxicity, organism-based, Sprague-Dawley
Set-up: regimen Single, gender Male, age 6 weeks
Conditions: in vivo, po, 0 mg/kg, 24 h, tissue Kidney, route gavage, dose level Control
Task for the reader: assign each of the following molecules its reported KIDNEY_TOTAL.
Give the quantity in g, number only.

q: Name the recorded KIDNEY_TOTAL of the item CN(C)CCC(c1ccc(Cl)cc1)c1ccccn1 (stereo unspecified) [CHLORPHENIRAMINE] in your answer.
a: 1.8

q: Name the recorded KIDNEY_TOTAL of the item NC1=NC(=O)C(c2ccccc2)O1 (stereo unspecified) [PEMOLINE] in your answer.
a: 1.9

q: Name the recorded KIDNEY_TOTAL of the item Cc1nnc2n1-c1ccc(Cl)cc1C(c1ccccc1Cl)=NC2 [TRIAZOLAM] in your answer.
a: 1.8

q: Name the recorded KIDNEY_TOTAL of the item Nc1c2c(nc3ccccc13)CCCC2 [TACRINE] in your answer.
a: 1.9

q: Name the recorded KIDNEY_TOTAL of the item COC(=O)C1=C(C)NC(C)=C(C(=O)OC)C1c1ccccc1[N+](=O)[O-] [NIFEDIPINE] in your answer.
a: 1.8

q: Name the recorded KIDNEY_TOTAL of the item CCCc1cc(=O)[nH]c(=S)[nH]1 [PROPYLTHIOURACIL] in your answer.
a: 1.7

---

Task for the reader: assign each of the following compounds its reported Neu.
Species on record: Rattus norvegicus
Experiment: Open TG-GATES - Regimen: Single
Type: toxicity, organism-based, Sprague-Dawley
Design: regimen Single, gender Male, age 6 weeks
Conditions: in vivo, po, 100 mg/kg, 3 h, tissue Blood, route gavage, dose level Low
Give the quantity in %, number only.

q: Name the recorded Neu of the item CNC(=C[N+](=O)[O-])NCCSCc1ccc(CN(C)C)o1 [RANITIDINE] in your answer.
a: 15.2

q: Name the recorded Neu of the item CN/C(=N/CCSCc1nc[nH]c1C)NC#N [CIMETIDINE] in your answer.
a: 16.8

q: Name the recorded Neu of the item Cc1nnc2n1-c1ccc(Cl)cc1C(c1ccccc1Cl)=NC2 [TRIAZOLAM] in your answer.
a: 20.4

q: Name the recorded Neu of the item O=C(OC[C@H]1O[C@@H](OC(=O)c2cc(O)c(O)c(OC(=O)c3cc(O)c(O)c(O)c3)c2)[C@H](OC(=O)c2cc(O)c(O)c(OC(=O)c3cc(O)c(O)c(O)c3)c2)[C@@H](OC(=O)c2cc(O)c(O)c(OC(=O)c3cc(O)c(O)c(O)c3)c2)[C@@H]1OC(=O)c1cc(O)c(O)c(OC(=O)c2cc(O)c(O)c(O)c2)c1)c1cc(O)c(O)c(OC(=O)c2cc(O)c(O)c(O)c2)c1 [TANNIC ACID] in your answer.
a: 11.2
